Please provide measured pIC50 for the entries that follow.
Target: PDGFRβ (Homo sapiens (Human), UniProt P09619)
Sequence (P09619 33-1106): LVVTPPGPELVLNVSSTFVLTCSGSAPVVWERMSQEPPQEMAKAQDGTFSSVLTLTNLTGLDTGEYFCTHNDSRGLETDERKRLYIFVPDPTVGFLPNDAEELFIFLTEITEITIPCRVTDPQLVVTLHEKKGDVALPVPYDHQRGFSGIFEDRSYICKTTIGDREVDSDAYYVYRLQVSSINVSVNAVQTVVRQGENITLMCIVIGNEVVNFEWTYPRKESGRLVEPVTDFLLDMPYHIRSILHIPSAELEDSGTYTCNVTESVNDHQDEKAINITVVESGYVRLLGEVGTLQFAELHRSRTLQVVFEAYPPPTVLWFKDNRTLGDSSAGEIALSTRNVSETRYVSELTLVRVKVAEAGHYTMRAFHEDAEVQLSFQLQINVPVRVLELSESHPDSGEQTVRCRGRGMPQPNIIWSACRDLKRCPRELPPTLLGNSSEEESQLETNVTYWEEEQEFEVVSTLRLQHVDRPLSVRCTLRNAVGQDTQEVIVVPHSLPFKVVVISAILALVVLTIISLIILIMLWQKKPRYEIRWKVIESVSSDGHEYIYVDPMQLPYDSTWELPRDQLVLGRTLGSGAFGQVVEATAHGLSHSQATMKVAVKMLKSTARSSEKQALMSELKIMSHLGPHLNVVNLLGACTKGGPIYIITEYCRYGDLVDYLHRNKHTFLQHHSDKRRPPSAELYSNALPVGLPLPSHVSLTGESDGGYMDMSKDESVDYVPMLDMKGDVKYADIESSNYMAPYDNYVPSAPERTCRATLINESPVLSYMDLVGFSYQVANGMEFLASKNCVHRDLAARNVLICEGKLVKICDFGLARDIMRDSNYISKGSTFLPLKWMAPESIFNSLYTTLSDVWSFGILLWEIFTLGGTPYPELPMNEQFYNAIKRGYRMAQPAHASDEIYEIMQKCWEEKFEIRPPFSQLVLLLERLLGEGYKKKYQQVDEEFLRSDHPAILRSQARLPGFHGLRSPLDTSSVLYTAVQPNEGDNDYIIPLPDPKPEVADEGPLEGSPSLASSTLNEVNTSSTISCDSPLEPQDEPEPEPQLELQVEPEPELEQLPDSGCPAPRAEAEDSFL
Assay: Inhibition of PDGFRβ kinase activity (HTRF KinEASE-TK)
Conditions: biochemical, HTRF KinEASE-TK
pIC50: −log10 of the molar value.

Using the record for `Cc1ncc(C(=O)Nc2cc(C(=O)Nc3cnc(N4CCC(F)(F)C4)cn3)c(F)cc2C)s1` , report its pIC50.
< 6.00

Using the record for `COc1ccnc(NC(=O)c2cc(NC(=O)c3cnc(N)s3)c(C)cc2F)c1` , report its pIC50.
6.00 to 7.00

Using the record for `Cc1cc(F)c(C(=O)Nc2cnn(C)c2)cc1NC(=O)c1cnc(N)s1` , report its pIC50.
< 6.00

Using the record for `Cc1ncc(NC(=O)c2cc(NC(=O)c3cnc(N)s3)c(C)cc2F)s1` , report its pIC50.
6.00 to 7.00

Using the record for `Cc1ncc(C(=O)Nc2cc(C(=O)Nc3cncc(COC(F)F)c3)c(F)cc2C)s1` , report its pIC50.
< 6.00

Using the record for `Cc1ncc(C(=O)Nc2cc(C(=O)Nc3cnc(C4CC4)nc3)c(F)cc2C)s1` , report its pIC50.
< 6.00

Using the record for `Cc1cc(F)c(C(=O)Nc2ccn(-c3ccccn3)n2)cc1NC(=O)c1cnc(N)s1` , report its pIC50.
< 6.00

Using the record for `COC1(c2ccc(NC(=O)c3cc(NC(=O)c4cnc(N)s4)c(C)cc3F)nc2)CC1` , report its pIC50.
6.00 to 7.00
